- measured on: 5-hydroxytryptamine receptor 3A (Rattus norvegicus, UniProt P35563)
- Sequence (P35563 whole entry): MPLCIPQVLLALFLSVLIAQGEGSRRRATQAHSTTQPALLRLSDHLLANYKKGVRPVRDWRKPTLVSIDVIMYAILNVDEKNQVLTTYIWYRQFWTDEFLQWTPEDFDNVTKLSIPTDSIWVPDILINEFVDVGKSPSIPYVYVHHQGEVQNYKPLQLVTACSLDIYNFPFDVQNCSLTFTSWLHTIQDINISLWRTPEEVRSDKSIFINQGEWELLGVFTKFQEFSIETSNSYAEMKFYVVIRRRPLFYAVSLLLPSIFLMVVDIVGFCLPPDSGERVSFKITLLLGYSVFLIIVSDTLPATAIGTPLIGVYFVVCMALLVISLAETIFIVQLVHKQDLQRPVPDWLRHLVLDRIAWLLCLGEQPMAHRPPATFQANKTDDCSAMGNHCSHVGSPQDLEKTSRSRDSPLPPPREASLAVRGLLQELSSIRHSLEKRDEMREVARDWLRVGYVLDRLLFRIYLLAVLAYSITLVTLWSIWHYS
pKi: −log10 of the molar value.
recorded endpoint: pKi

structure	recorded endpoint	result value
Cn1cc(C(=O)OCC2CCN(CCNS(C)(=O)=O)CC2)c2ccccc21	pKi	6.00

###

- measured on: Rat vasopressin-neurophysin (Rattus norvegicus)
- Sequence (Q6LEI5 whole entry): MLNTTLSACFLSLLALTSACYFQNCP

compound	Ki
Cn1cc(C(=O)OCC2CCN(CCNS(C)(=O)=O)CC2)c2ccccc21 [GR 113808]	> 10 µM

###

- measured on: Beta-1 adrenergic receptor (Rattus norvegicus, UniProt P18090)
- Sequence (P18090 whole entry): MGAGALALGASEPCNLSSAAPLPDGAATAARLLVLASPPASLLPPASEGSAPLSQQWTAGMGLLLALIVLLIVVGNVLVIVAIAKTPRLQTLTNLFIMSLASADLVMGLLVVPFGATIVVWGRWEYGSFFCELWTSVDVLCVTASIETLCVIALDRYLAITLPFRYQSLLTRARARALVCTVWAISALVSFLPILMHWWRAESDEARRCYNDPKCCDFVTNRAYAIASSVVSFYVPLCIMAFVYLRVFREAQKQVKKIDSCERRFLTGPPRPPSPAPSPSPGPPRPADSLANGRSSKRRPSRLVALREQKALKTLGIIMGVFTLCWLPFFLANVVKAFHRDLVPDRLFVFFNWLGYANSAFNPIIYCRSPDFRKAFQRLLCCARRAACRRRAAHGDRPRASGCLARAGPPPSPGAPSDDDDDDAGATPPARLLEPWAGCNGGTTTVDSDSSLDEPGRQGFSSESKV
pKi: −log10 of the molar value.

structure	pKi
Cn1cc(C(=O)OCC2CCN(CCNS(C)(=O)=O)CC2)c2ccccc21	5.10

###

- measured on: Alpha-1A adrenergic receptor (Rattus norvegicus, UniProt P43140)
- Sequence (P43140 whole entry): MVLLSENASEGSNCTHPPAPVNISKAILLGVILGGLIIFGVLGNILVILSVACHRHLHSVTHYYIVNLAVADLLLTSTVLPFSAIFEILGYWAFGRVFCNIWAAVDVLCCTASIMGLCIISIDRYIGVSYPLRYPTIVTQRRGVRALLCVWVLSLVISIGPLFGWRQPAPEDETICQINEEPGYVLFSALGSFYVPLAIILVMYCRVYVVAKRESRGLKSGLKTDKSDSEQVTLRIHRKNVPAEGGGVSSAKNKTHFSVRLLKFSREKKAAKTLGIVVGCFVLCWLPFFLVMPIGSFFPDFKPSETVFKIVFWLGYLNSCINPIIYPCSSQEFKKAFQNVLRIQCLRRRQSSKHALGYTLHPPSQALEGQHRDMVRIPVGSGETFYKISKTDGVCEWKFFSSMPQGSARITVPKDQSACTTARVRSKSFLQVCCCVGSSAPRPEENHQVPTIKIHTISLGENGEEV
recorded endpoint: Ki

compound	measured on	recorded endpoint	result value
Cn1cc(C(=O)OCC2CCN(CCNS(C)(=O)=O)CC2)c2ccccc21 [GR 113808]	Alpha-1A adrenergic receptor (Rattus norvegicus, UniProt P43140)	Ki	> 10 µM

###

- measured on: Kappa-type opioid receptor (Rattus norvegicus, UniProt P34975)
- Sequence (P34975 whole entry): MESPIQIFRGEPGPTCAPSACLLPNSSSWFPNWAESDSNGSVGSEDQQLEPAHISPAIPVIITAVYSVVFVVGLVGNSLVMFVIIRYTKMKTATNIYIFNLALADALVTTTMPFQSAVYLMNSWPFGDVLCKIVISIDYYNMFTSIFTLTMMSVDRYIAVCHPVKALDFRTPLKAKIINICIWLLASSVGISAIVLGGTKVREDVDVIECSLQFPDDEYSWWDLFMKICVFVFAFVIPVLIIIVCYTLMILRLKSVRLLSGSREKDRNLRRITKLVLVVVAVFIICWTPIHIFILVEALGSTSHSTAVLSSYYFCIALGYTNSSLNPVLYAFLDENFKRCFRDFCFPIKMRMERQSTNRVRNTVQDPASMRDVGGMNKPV
pKi: −log10 of the molar value.
recorded endpoint: pKi

molecule	result value
Cn1cc(C(=O)OCC2CCN(CCNS(C)(=O)=O)CC2)c2ccccc21 [GR 113808]	< 5.00
